// provenance: ChEMBL document CHEMBL1137690

Tested on: HeLa
test.description: Antiproliferative activity against human HeLa cells after 4 hrs by WST-1 assay
Assay type: functional, cell-based
applied.conditions: 48 h
observed.property: IC50 (µM)

Worked cases, IC50 given:
smiles.representation: O=C(/C=C/C=C/c1ccccc1)NCCCCCC(=O)NO
subject.of.test: HeLa
units: µM
IC50: 5.1

smiles.representation: O=C(C=C(c1ccccc1)c1ccccc1)NCCCCCC(=O)NO
subject.of.test: HeLa
units: µM
IC50: 8.5

smiles.representation: O=C(CCCCCNC(=O)CCCc1ccccc1)NO
subject.of.test: HeLa
units: µM
IC50: 52.7

A = O=C(/C=C/c1cccnc1)NCCCCCC(=O)NO.O=C(O)C(=O)O
B = CN(C)c1ccc(CC(=O)NCCCCCC(=O)NO)cc1
C = CC(/C=C/C(=O)NCCCC(=O)NO)=C\c1ccccc1
D = O=C(/C=C/c1ccccn1)NCCCCCC(=O)NO.O=C(O)C(=O)O
E = CC(/C=C/c1ccccc1)=C\C(=O)NCCCCCC(=O)NO
Incoming: Sequence the entries by IC50, beginning with the highest number. Form field (ranking): labels in requested order.
Outgoing: C, B, A, D, E
(C: 114 µM, B: 52.7 µM, A: 28.4 µM, D: 9.5 µM, E: 4.8 µM)

###

subject.of.test: Histone deacetylase 1 (Homo sapiens)
Sequence (Q13547 whole entry): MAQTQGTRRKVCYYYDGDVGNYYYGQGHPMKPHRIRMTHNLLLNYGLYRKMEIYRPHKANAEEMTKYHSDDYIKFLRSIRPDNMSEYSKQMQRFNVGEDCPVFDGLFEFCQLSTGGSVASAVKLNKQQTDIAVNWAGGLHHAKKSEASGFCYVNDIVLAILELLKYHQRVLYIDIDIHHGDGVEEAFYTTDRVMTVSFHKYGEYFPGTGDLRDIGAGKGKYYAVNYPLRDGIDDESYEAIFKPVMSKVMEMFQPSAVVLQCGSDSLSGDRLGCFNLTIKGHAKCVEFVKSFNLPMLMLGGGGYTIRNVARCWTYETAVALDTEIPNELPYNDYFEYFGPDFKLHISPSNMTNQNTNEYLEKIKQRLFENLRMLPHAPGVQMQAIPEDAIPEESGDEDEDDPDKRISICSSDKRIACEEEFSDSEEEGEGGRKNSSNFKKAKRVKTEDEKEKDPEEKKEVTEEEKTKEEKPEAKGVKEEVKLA
test.description: Inhibition of human recombinant HDAC1
observed.property: pIC50
Units for pIC50: none; it is -log10 of a concentration expressed in mol/L.

Incoming: Give me measured pIC50, please, for this compound: O=C(C=C1c2ccccc2-c2ccccc21)NCCCCCC(=O)NO
Outgoing: 8.80
